Catalogue of fractional viability values
Test system: TYKNU
Assay: fractional viability relative to vehicle; TYKNU is a high-grade serous ovarian cancer line; higher = less growth inhibition
Settings: 10uM; 72 h; genotype: sgCTRLA1 (non-targeting control)
Where a name gives a salt, the structure may show the parent alone. Over roughly 2,000 compounds, “fractional viability relative to vehicle” has its median near 0.91; the lowest 2% begin near 0.045. The full list was thinned out, with the lowest values kept by preference.

molecule	fractional viability
O=C(O)Cc1ccccc1Nc1c(Cl)cccc1Cl [Diclofenac Potassium]	1.07
CN1CCN(S(=O)(=O)c2ccc(-c3cnc(N)c(C(=O)Nc4cccnc4)n3)cc2)CC1	0.474
CCN(CC)CCOc1ccc(C(=C(Cl)c2ccccc2)c2ccccc2)cc1 [Clomifene citrate]	0.479
COc1ccc(/C=C\c2cc(OC)c(OC)c(OC)c2)cc1O [Combretastatin A4]	0.073
COc1cc(/C=C/C(=O)N2CCC=CC2=O)cc(OC)c1OC [Piperlongumine]	0.0292

Data credit: the supplement of paper PMC5919970
